methodDescription: Cytotoxicity against human MT4 cells assessed as reduction in cell viability measured after 5 days by MTT assay
Format: toxicity, cell-based
reportedConditions: time 5 day
valueType: CC50 at 120 h (µM)
Numeric answer only, unit µM assumed.

Query block: Would you kindly share the measured CC50 at 120 h for Nc1ccc(S(=O)(=O)N2CCN(C(=O)c3cc(O)c(O)c(O)c3)CC2C(=O)NCc2ccco2)cc1 (stereo not drawn) ?
Result block: 25.3

Query block: Item Nc1ccc(S(=O)(=O)N2CCN(C(=O)c3cc(O)c(O)c(O)c3)C(C(=O)NCc3ccc(-c4ccccc4)cc3)C2)cc1 (stereo not drawn) has what recorded CC50 at 120 h?
Result block: 207

Query block: Could you share which CC50 at 120 h value was measured for N#Cc1ccc(S(=O)(=O)N2CCN(C(=O)c3cc(O)c(O)c(O)c3)C(C(=O)Nc3ccccc3)C2)cc1 (stereo not drawn) ?
Result block: 130
